- target_system: Fatty acid synthase (Homo sapiens)
- Sequence (P49327 whole entry, the tested form may be a part): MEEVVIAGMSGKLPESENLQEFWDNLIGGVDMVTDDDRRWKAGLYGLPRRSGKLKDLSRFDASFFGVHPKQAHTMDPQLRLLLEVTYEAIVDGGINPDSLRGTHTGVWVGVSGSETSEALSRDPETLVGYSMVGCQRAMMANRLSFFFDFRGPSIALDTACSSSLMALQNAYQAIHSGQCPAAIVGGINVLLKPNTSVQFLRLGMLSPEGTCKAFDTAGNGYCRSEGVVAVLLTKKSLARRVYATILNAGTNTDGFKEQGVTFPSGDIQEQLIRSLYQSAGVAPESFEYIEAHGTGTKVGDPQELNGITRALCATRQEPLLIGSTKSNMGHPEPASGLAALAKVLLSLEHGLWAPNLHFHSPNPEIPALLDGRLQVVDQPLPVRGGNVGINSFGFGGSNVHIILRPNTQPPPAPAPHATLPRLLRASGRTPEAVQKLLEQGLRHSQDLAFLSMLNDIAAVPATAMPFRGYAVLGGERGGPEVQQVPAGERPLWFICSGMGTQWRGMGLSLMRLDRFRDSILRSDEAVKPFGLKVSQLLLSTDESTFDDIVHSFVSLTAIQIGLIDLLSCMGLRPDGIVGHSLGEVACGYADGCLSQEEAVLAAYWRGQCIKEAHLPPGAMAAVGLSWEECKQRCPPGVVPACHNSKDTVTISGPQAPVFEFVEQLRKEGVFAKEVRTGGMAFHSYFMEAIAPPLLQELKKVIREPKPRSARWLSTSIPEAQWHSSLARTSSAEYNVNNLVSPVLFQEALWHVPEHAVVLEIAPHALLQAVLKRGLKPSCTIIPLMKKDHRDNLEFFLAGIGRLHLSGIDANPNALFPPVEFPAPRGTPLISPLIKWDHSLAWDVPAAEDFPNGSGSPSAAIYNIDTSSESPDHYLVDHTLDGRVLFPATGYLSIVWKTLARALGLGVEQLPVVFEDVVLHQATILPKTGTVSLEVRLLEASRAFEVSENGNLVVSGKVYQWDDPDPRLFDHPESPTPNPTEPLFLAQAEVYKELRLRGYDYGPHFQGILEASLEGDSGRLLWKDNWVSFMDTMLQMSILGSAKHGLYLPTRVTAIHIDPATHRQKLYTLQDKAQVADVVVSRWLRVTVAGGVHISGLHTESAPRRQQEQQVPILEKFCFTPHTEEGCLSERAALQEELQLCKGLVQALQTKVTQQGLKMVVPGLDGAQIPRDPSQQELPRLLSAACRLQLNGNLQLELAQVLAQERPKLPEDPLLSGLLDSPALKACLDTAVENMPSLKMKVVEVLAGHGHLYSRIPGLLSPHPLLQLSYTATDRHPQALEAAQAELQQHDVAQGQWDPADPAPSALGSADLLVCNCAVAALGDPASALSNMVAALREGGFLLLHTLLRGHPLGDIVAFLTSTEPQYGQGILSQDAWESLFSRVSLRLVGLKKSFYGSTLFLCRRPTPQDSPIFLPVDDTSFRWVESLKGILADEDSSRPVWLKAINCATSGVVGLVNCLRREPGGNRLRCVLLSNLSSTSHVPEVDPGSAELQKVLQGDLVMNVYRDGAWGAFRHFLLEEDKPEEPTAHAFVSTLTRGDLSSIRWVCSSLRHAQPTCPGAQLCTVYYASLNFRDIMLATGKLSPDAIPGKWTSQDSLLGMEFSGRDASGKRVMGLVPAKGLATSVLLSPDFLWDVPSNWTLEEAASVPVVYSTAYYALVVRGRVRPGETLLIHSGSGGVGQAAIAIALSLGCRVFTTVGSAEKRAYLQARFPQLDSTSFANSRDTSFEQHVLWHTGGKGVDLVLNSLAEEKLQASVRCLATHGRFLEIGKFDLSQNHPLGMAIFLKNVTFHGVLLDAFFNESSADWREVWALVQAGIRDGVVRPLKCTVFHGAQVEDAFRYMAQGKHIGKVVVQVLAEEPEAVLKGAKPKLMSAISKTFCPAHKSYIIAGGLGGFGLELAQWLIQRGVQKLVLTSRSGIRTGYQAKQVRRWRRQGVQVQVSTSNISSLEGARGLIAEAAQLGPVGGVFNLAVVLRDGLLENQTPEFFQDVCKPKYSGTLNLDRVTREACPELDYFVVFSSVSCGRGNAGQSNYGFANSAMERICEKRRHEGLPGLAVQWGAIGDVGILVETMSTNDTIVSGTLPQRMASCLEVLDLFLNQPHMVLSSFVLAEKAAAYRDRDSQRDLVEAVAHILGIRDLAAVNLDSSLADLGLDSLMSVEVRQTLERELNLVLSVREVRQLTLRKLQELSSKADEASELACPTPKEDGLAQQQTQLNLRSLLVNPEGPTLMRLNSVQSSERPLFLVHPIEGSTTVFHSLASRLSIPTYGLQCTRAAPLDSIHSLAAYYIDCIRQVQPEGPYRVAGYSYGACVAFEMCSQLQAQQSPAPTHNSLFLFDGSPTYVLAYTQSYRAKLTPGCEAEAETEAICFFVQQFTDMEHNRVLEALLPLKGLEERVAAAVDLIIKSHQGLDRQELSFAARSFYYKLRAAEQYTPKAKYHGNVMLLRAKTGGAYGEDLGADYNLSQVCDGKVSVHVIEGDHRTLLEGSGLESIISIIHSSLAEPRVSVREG
- test_method_notes: FAS thioesterase domain inhibitors, dose response, biochemical, kinetic fluorescence intensity (AID 624326);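 also: rate of fluorescence rise from hydrolysis of a fluorogenic O-methyl fluorescein ester substrate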
- Format: functional
The source made the active and inactive calls. Rule as the data show it: active = IC50 of 20 µM or less and inactive = more.
Lab note: assign the record to one of active, inactive

How did this test come out for COC(=O)CC(NC(=O)Nc1ccc(C)cc1)c1cccc([N+](=O)[O-])c1 (stereo unspecified) ?
active

// param item: O=C(Nn1c(C2CCCCC2)nc2ccccc2c1=O)c1ccc([N+](=O)[O-])cc1Cl ; yields the recorded call
active

I'd appreciate the recorded outcome for Cc1cc(Br)ccc1NC(=O)CN(C)C(=O)c1cc([N+](=O)[O-])ccc1N1CCOCC1 from this test.
active

Query: recorded result category for CCCCCC1CC(CC(=O)Nc2ccc([N+](=O)[O-])cc2)C(=O)O1 (stereo unspecified) in this test
active

// outcome(item) with item = COc1ccc(C2CC23N=C(c2ccccc2)OC3=O)cc1 (stereo unspecified)
active

So what was the verdict on Cc1nn(CCOc2ccc(Br)cc2)c(C)c1[N+](=O)[O-] in this test?
inactive

What outcome does the record of this test show for O=C1CN(C(=O)c2cc([N+](=O)[O-])ccc2Cl)C(c2ccccc2)c2cc(F)ccc2N1 (stereo unspecified) ?
active

Each compound tested received a call. Report the one for O=c1ccc2c(-c3ccccc3S(=O)(=O)O)c3ccc(O)c(O)c3oc-2c1O .
active

Assay outcome for COc1ccc(C(=O)NCCNc2ncc(C(F)(F)F)cc2Cl)cc1[N+](=O)[O-] : what was it?
active

Lab log entry: CN1C[C@H](C(=O)NC2(C)OC3(O)[C@@H]4CCCN4C(=O)[C@H](Cc4ccccc4)N3C2=O)CC2c3cccc4[nH]cc(c34)C[C@H]21 (stereo partly specified) — outcome as called in the assay?
active

// return assay outcome for CCOc1ccc(CCNC(=O)COC(=O)c2cc([N+](=O)[O-])ccc2N2CCOCC2)cc1OCC
active
